- Tested on: HeLa cells
- Protocol details: Proliferation assay HeLa
- Format: cell-based, human
- Test parameters: Homo sapiens, HeLa, 96 h, 4 days, crystal violet; read-out: Inhibition of HeLa cell proliferation IC50
Mark each entry True if its IC50 sits below 0.01 µM, and False for all others.

# example entries with known answers
CS(=O)(Cc1cc2nc(c1)OCCCOc1cc(F)ccc1-c1cc(ncc1F)N2)=NC(=O)OCCCl (racemic)
False
CS(=O)(Cc1cc2nc(c1)OCCCOc1cc(F)ccc1-c1cc(ncc1F)N2)=NC(=O)OCCN (racemic)
False
CS(=N)(=O)Cc1cc2nc(c1)OCCCCOc1cc(F)ccc1-c1cc(ncc1F)N2 (racemic)
False
C[S+]([O-])Cc1cc2nc(c1)OCCOc1cc(F)ccc1-c1cc(ncc1F)N2 (racemic)
False
CCNC(=O)N=S(C)(=O)Cc1cc2nc(c1)OCCCOc1cc(F)ccc1-c1cc(ncc1F)N2 (racemic)
False
CSCc1cc2cc(c1)OCCCOc1cc(F)ccc1-c1nc(ncc1F)N2
False
CS(=N)(=O)Cc1cc2cc(c1)OCCCOc1cc(F)ccc1-c1nc(ncc1F)N2 (racemic)
True
CS(=N)(=O)Cc1cc2nc(c1)OCCCOc1cc(F)ccc1-c1cc(ncc1F)N2 (single isomer, unassigned; enantiomer 1) [Example 6]
False
CCOC(=O)N=S(C)(=O)Cc1cc2nc(c1)OCCCOc1cc(F)ccc1-c1cc(ncc1F)N2 (racemic)
False
CS(=O)(=O)Cc1cc2nc(c1)OCCCOc1cc(F)ccc1-c1cc(ncc1F)N2
False

Please examine the following record next.
Exam item: Please indicate whether the reported IC50 of CS(=N)(=O)Cc1cc2nc(c1)OCCCOc1cc(F)ccc1-c1cc(ncc1F)N2 (racemic) [Example 5] is strictly below 0.01 µM.
Marked response: True

* * *

This section presents molecules with their documented pIC50 values.
- Assayed system: CDK9/CycT1 (Homo sapiens)
- Construct: Recombinant full-length His-tagged human CDK9 and CycT1; His; purchased Invitrogen PV4131; host or cells: insect cells
- Sequence (P50750 whole entry): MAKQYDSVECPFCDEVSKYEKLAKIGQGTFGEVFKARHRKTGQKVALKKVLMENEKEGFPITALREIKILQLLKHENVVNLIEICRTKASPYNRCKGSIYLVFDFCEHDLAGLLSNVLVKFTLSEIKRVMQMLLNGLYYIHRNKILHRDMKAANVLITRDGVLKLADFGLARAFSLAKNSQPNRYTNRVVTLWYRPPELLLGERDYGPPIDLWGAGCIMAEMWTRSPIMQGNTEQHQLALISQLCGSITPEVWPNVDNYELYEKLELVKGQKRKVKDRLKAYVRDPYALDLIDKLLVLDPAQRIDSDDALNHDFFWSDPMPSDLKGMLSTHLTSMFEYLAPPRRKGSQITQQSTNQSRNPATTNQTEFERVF
- Sequence (O60563 whole entry partner): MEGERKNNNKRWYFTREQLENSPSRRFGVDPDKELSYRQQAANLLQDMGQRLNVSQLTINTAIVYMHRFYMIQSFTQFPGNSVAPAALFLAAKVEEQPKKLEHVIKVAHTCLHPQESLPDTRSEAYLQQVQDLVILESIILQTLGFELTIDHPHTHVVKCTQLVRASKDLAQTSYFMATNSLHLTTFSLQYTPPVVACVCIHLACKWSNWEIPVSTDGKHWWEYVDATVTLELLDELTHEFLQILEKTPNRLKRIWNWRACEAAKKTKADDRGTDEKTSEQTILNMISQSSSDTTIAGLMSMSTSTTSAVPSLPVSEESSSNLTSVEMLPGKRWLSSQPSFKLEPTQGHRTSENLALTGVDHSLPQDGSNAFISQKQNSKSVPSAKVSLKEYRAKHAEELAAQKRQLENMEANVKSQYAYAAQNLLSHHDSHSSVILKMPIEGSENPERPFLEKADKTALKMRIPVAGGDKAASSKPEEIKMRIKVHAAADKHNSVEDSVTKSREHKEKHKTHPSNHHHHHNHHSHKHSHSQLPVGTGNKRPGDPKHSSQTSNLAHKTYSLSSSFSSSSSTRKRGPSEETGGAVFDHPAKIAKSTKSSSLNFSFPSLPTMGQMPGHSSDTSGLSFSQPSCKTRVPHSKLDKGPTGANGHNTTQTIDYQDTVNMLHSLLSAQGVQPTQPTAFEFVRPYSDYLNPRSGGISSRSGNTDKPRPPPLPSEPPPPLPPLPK
- Protocol details: CDK9/CycT1 high ATP kinase assay (TR-FRET, Method 1b)
- Type: biochemical
- Test parameters: Method 1b, 2 mM ATP
Friendly reminder that pIC50 comes from taking -log10 of the concentration in mol/L.

Known results for molecules:
CS(=N)(=O)Cc1cc2nc(c1)OCCCOc1cc(F)ccc1-c1cc(ncc1F)N2 (racemic) [Example 5]
9.01
CS(=O)(=O)Cc1cc2nc(c1)OCCCOc1cc(F)ccc1-c1cc(ncc1F)N2
8.64

Per the record, CS(=N)(=O)Cc1cc2cc(c1)OCCCOc1cc(F)ccc1-c1nc(ncc1F)N2 (racemic) has pIC50 of 8.72

Please fill in: pIC50 reported for CC(=O)N=S(C)(=O)Cc1cc2nc(c1)OCCCOc1cc(F)ccc1-c1cc(ncc1F)N2 (racemic) = 8.54

Kindly note the recorded pIC50 for CCOC(=O)N=S(C)(=O)Cc1cc2nc(c1)OCCCOc1cc(F)ccc1-c1cc(ncc1F)N2 (racemic) , which is 8.47

The molecule listed as C[S+]([O-])Cc1cc2nc(c1)OCCOc1cc(F)ccc1-c1cc(ncc1F)N2 (racemic) shows pIC50 equal to 7.56

Reported pIC50 ( CS(=O)(Cc1cc2nc(c1)OCCCOc1cc(F)ccc1-c1cc(ncc1F)N2)=NS(=O)(=O)CCN (racemic) ) = 8.41

Value of pIC50 reported for the molecule C[S+]([O-])Cc1cc2nc(c1)OCCCCOc1cc(F)ccc1-c1cc(ncc1F)N2 (racemic) is 8.49

Entry CS(=N)(=O)Cc1cc2nc(c1)OCCCOc1cc(F)ccc1-c1cc(ncc1F)N2 (single isomer, unassigned; enantiomer 1) [Example 6] — recorded pIC50 = 8.96

Short answer for CSCc1cc2cc(c1)OCCCOc1cc(F)ccc1-c1nc(ncc1F)N2 : pIC50 was 8.37

For this molecule ( C[S+]([O-])Cc1cc2nc(c1)OCCCOc1cc(F)ccc1-c1cc(ncc1F)N2 (racemic) ), measured pIC50 is 8.80
